Measured values drawn from the supplement of paper PMC10702517 for this set.

test protocol: chemical recovery by SPE of plasma after PDMS sampling; higher = better extraction
assay setup: pooled human plasma; extraction method: HLB SPE of plasma after PES; equilibration time (d): 1
measure: chemical recovery by SPE of plasma (%)
Give bare numbers, in %.

Please go through the list and note chemical recovery by SPE of plasma for each compound.
1. Oc1cc(Cl)ccc1Oc1ccc(Cl)cc1Cl
2. NC(=O)/N=C1\SCCN1Cc1ccc(Cl)nc1 [Thiacloprid amide]
3. Nc1ccc(Cl)cc1
4. O=C1CCCC=CCCCCCCCCCC1
5. CC(C)N(C(=O)COc1nnc(C(F)(F)F)s1)c1ccc(F)cc1
6. O=C1NCCN1Cc1ccc(Cl)nc1
7. Clc1ccc(-c2ccc(Cl)cc2Cl)cc1
8. Clc1cc(Cl)c(-c2cc(Cl)c(Cl)c(Cl)c2Cl)cc1Cl

Reply:
[24.8, 51.1, 11.4, 1.02, 0.558, 50.1, 1.11, 4.51]

Batch request: chemical recovery by SPE of plasma for each of the following compounds.
1. CC(C)C1(C)N=C(c2ncccc2C(=O)O)NC1=O (stereo unspecified)
2. COCC(C)N(C(=O)CS(=O)(=O)O)c1c(C)csc1C (stereo unspecified)
3. CCNc1nc(Cl)nc(NC(C)(C)C)n1

Reply:
1: 49.5; 2: 45.5; 3: 1.41

* * *

Field: chemical recovery. Provide a value for each of the molecules that follow.
test protocol: chemical recovery from spiked human plasma; higher = better extraction
assay setup: pooled human plasma; extraction method: SPE only (HLB 96-well), PES comparison experiment
Answers are plain numbers, in %.

For orientation, consider the following solved cases.
>  <molecule>
CNC(=O)Oc1cccc2c1OC(C)(C)O2

>  <chemical recovery (%)>
45.4

$$$$
>  <molecule>
O=P(Oc1ccccc1)(Oc1ccccc1)Oc1ccccc1 [Triphenylphosphate]

>  <chemical recovery (%)>
41.3

$$$$
>  <molecule>
O=c1[nH]nc(C(F)(F)F)s1

>  <chemical recovery (%)>
15.9

$$$$
>  <molecule>
c1ccc2c(c1)Cc1cc3ccccc3cc1-2

>  <chemical recovery (%)>
17.5

$$$$
>  <molecule>
c1ccc(-c2cccc(-c3ccccc3)c2)cc1

>  <chemical recovery (%)>
2.42

$$$$

Answer for every listed entry: what is its chemical recovery? The entries follow.
1. c1ccc2[nH]nnc2c1
2. Oc1cccc2n[nH]nc12 [4-Hydroxybenzotriazole]
3. CN(C)C(=O)C(CCN1CCC(O)(c2ccc(Cl)cc2)CC1)(c1ccccc1)c1ccccc1 [Loperamide]
4. Fc1ccc([C@]2(Cn3cncn3)O[C@H]2c2ccccc2Cl)cc1 (racemic)
5. CC(C)N(C(=O)SCC(Cl)=C(Cl)Cl)C(C)C [Triallate]

Reply:
53.9
48
50.8
47.4
22.8

Give measured chemical recovery for every item shown.
1. CCN(CC)CC(=O)Nc1c(C)cccc1C
2. ClC(Cl)=C(c1ccc(Cl)cc1)c1ccc(Cl)cc1
3. C[Si](Cn1cncn1)(c1ccc(F)cc1)c1ccc(F)cc1
4. CO/C=C(/C(=O)OC)c1ccccc1COc1cccc(C(F)(F)F)n1

Reply:
[42.3, 13, 48, 47.8]

For each of the molecules below, note its chemical recovery.
1. OC(Cc1ccccc1Cl)(Cn1cncn1)C1(Cl)CC1 (configuration not stated)
2. ClC1=C(Cl)[C@]2(Cl)[C@@H]3[C@@H]4C[C@@H]([C@H]5O[C@@H]45)[C@@H]3[C@@]1(Cl)C2(Cl)Cl
3. N#CSCSc1nc2ccccc2s1 [(Benzothiazol-2-ylthio)methyl thiocyanate]
4. CCN(CC)c1ccc2c(C)cc(=O)oc2c1
5. Cc1nccc2c1[nH]c1ccccc12
6. CC1CCc2cc(F)cc3c(=O)c(C(=O)O)cn1c23 (configuration not stated)
7. COC(=O)N(C(=O)N1CO[C@@]2(C(=O)OC)Cc3cc(Cl)ccc3C2=N1)c1ccc(OC(F)(F)F)cc1
8. Oc1ccc(Cl)cc1Cc1cc(Cl)ccc1O

Reply:
1. 47
2. 8.32
3. 33.5
4. 47.7
5. 48.2
6. 49.8
7. 38.3
8. 50.4

Consider the following items and state reported chemical recovery for each.
1. Cc1nc2ccccc2s1
2. O=C(O)COCCN1CCN(C(c2ccccc2)c2ccc(Cl)cc2)CC1 (configuration not stated)
3. CCC1=C(C)CN(C(=O)NCCc2ccc(S(=O)(=O)NC(=O)NC3CCC(C)CC3)cc2)C1=O (configuration not stated) [Glimepiride]
4. Nc1nc(N)nc(N)n1
5. c1ccc2c(c1)ccc1ccccc12

Reply:
[0.912, 48.6, 42.6, 0.589, 20.8]

* * *

test protocol: chemical recovery from spiked human plasma; higher = better extraction
assay setup: pooled human plasma; extraction method: SPE only (HLB 96-well)
measure: chemical recovery (%)
Give bare numbers, in %.

>  <compound>
OC[C@H]1O[C@H](O[C@]2(CCl)O[C@H](CCl)[C@@H](O)[C@@H]2O)[C@H](O)[C@@H](O)[C@H]1Cl

>  <chemical recovery / %>
21.6

$$$$
>  <compound>
Cc1cc(C)nc(N)n1

>  <chemical recovery / %>
2.25

$$$$
>  <compound>
CCCCCOC(=O)c1ccccc1C(=O)OCCCCC [Di-n-pentylphthalate]

>  <chemical recovery / %>
29.6

$$$$
>  <compound>
CCCSc1ccc2[nH]c(NC(=O)OC)nc2c1

>  <chemical recovery / %>
35.7

$$$$

Query: Please list chemical recovery recorded for the compound "CN(C)c1ccc(C(=O)c2ccc(N(C)C)cc2)cc1"
Reply: 34.4

* * *

I'd be grateful if you could share measured chemical recovery into PDMS for these entries.
test protocol: chemical recovery into PDMS from spiked human plasma; higher = better extraction
assay setup: pooled human plasma; extraction method: PES with PDMS; equilibration time (d): 1
Answers are plain numbers, in %.

Some solved cases for reference:
>  <compound>
CCOP(=S)(OCC)SCSP(=S)(OCC)OCC

>  <result number>
48.1

$$$$
>  <compound>
COCCN(C(=O)CCl)c1c(C)cccc1C

>  <result number>
34.9

$$$$
>  <compound>
CNC(=O)/C(=N/OC)c1ccccc1COc1cc(C)ccc1C

>  <result number>
42.8

$$$$
>  <compound>
O=[N+]([O-])/N=C1\NCCN1Cc1ccc(Cl)nc1

>  <result number>
3.82

$$$$
>  <compound>
CCCCOCCOCCOCc1cc2c(cc1CCC)OCO2 [Piperonyl butoxide]

>  <result number>
46.4

$$$$

State the recorded chemical recovery into PDMS for every item in the following list.
1. Oc1cc(Cl)ccc1Oc1ccc(Cl)cc1Cl
2. COC(=O)N(OC)c1ccccc1COc1ccn(-c2ccc(Cl)cc2)n1
3. O=S(=O)(O)c1ccccc1
4. CC(=O)c1cc2c(cc1C)C(C)(C)C(C)CC2(C)C (stereo not given) [Tonalide]
5. ClC1=C(Cl)C2(Cl)C3C4C=CC(C4)C3C1(Cl)C2(Cl)Cl (stereo not given)

Reply:
16
46.4
0.00847
49
84.1

* * *

test protocol: chemical recovery by SPE of plasma after PDMS sampling; higher = better extraction
assay setup: pooled human plasma; extraction method: HLB SPE of plasma after PES; equilibration time (d): 6
Please provide measured chemical recovery by SPE of plasma for the entries that follow.
Answers are plain numbers, in %.

Below, each entry is followed by its recorded chemical recovery by SPE of plasma result.
>  <compound>
Brc1ccc(Oc2ccc(Br)cc2Br)c(Br)c1

>  <readout units>
%

>  <chemical recovery by SPE of plasma>
1.34

$$$$
>  <compound>
CN(C)CCC=C1c2ccccc2CCc2ccccc21

>  <readout units>
%

>  <chemical recovery by SPE of plasma>
0.0767

$$$$
>  <compound>
CC(C)c1ccc(NC(=O)N(C)C)cc1

>  <readout units>
%

>  <chemical recovery by SPE of plasma>
3.08

$$$$
>  <compound>
COC(=O)[C@H](c1ccccc1Cl)N1CCc2sccc2C1

>  <readout units>
%

>  <chemical recovery by SPE of plasma>
0.597

$$$$
>  <compound>
COCC(C)N(C(=O)CCl)c1c(C)csc1C (stereo not drawn)

>  <readout units>
%

>  <chemical recovery by SPE of plasma>
1.25

$$$$
>  <compound>
CC[C@H](C)[C@H]1O[C@]2(C=C[C@@H]1C)C[C@@H]1C[C@@H](C/C=C(\C)[C@@H](O[C@H]3C[C@H](OC)[C@@H](O[C@H]4C[C@H](OC)[C@@H](NC)[C@H](C)O4)[C@H](C)O3)[C@@H](C)/C=C/C=C3\CO[C@@H]4[C@H](O)C(C)=C[C@@H](C(=O)O1)[C@]34O)O2

>  <readout units>
%

>  <chemical recovery by SPE of plasma>
8.2

$$$$
>  <compound>
Cc1nc2n(c(=O)c1CCN1CCC(c3noc4cc(F)ccc34)CC1)CCCC2

>  <readout units>
%

>  <chemical recovery by SPE of plasma>
2.32

$$$$

Query: State its chemical recovery by SPE of plasma: "COCCN(C(=O)CS(=O)(=O)O)c1c(C)cccc1C"
Reply: 48
